The measured values listed here are drawn from patent US20240343803A1.

Listed below: pEC50 values for each entry.
# Assay system: T1, Fusion protein of extracellular domain of cynomolgus monkey TIGIT and mouse IgG2a Fc fragment (cynomolgus … (cynomolgus monkey))
# T1 construct: The entry includes the signal peptide (limits not recoverable) and the mouse IgG2a Fc
# T1 sequence (chain, as listed by the source limits assumed): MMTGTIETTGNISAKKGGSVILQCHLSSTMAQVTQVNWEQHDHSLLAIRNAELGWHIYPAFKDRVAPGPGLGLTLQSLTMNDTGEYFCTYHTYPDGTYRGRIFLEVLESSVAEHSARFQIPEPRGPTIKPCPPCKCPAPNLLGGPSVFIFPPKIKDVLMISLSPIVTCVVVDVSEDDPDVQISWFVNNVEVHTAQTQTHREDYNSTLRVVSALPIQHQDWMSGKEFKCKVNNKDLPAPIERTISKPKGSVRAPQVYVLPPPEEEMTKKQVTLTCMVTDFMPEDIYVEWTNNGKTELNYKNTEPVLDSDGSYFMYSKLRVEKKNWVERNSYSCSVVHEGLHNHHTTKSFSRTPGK
# Measurement description: ELISA, cynomolgus monkey TIGIT ECD-mFc
pEC50: −log10 of the molar value.

| Binder | pEC50 |
| --- | --- |
| TIGIT-070-H3L1 (antibody, V domains shown, Humanized anti-TIGIT antibody) VH: EVQLVQSGAEVKKPGASVKVSCKASGYTFTNYYMHWVRQAPGQGLEWMGRIDPDSGGSKYNEKFKSRVTITVDKLSSTAYMELSSLRSEDTAVYYCAREGHYGFYSDYWGQGTTVTVSS VL: DIQMTQSPSSLSASVGDRVTITCRVSENIYSYLAWYQQKPGKSPKLLIYNAKTLAEGVPSRFSGSGSGTDFTLTISSLQPEDFATYYCQHHYGNPLTFGPGTKVDIK | 10.86 |
| TIGIT-CHI-006 (antibody, V domains shown, Human-mouse chimeric antibody) VH: EVQLQESGPGLAKPSQTPSLTCSVTGYSMTSDYWNWIRKFPGNKLEYMGYISYSGRTYYNPSLKSRISITRDTSKNQFYLQLNSVTTEDTATYYCARGDYSNYGGAMYDWGQGTSVTVSS VL: DIVMTQSHKFMSTSVGDRVSITCRASQGVSTTIAWYQQKPGQSPKLLIYSASYRYTGVPDRFTGSGSGTDFTFTISGVQAEDLAVYYCQQYYSSPFTFGGGTKLEIK | 10.59 |
| TIGIT-002-H4L2 (antibody, V domains shown, Humanized anti-TIGIT antibody) VH: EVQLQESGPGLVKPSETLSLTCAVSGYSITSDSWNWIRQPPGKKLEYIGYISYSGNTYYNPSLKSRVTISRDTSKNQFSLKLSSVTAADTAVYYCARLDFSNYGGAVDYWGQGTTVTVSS VL: DIVMTQTPLSLSVTPGQPASISCKASQNVRTAVAWYQQKPGQSPQLMIYSASYRYTGVPDRFSGSGSGTDFTLKISRVEAEDVGVYYCQQYYTTPWTFGGGTKVEIK | 10.60 |
